# Tested on: SNB-19 CNS
# Assay Notes: NCI-60 one-dose screen, 48 h (100 = growth as untreated, 0 = no growth, -100 = all killed)
# Assay Context: 10 µM
This is part of a sample that, as a whole, favours compounds with a hit. Of some 83,000 tested, about 20% had one in any assay.
Quantity: growth (%)

>  <Compound>
C[n+]1c(/C=C/c2c[nH]c3ccccc23)ccc2ccccc21

>  <Recorded Number>
68.4

$$$$
>  <Compound>
COc1ccc(C(=O)/C=C/c2cc(-c3ccc4c(c3)OCO4)n[nH]2)cc1OC

>  <Recorded Number>
47.1

$$$$
>  <Compound>
COc1ccc(S(=O)(=O)Nc2cc(/C=C\c3cc(OC)c(OC)c(OC)c3)ccc2OC)cc1

>  <Recorded Number>
55.1

$$$$
>  <Compound>
CCCCn1c(=O)[nH]c2c(c1=O)C(c1ccc(Cl)cc1)c1c([nH]c(=O)n(CCCC)c1=O)N2

>  <Recorded Number>
99.5

$$$$
>  <Compound>
O=C(CCc1ccccc1)N1CCN(C(=O)CCc2ccccc2)CC1

>  <Recorded Number>
99.6

$$$$
>  <Compound>
O=C(COCc1c(-c2ccccc2)no[n+]1[O-])Nc1nc(-c2ccc(Cl)cc2)cs1

>  <Recorded Number>
107

$$$$
>  <Compound>
CNC(=O)c1cc(Oc2ccc(NC(=O)Nc3ccc(Cl)c(OC4CCCCC4)c3)c(F)c2)ccn1

>  <Recorded Number>
41.2

$$$$
>  <Compound>
COC(=O)c1c(C)nc(Nc2nc3ccccc3s2)nc1-c1ccc(Cl)cc1Cl

>  <Recorded Number>
92.3

$$$$
>  <Compound>
CC(=O)c1c(O)cc2c3c1OC(C)(C)C1CCC(C)(CC31)O2 (stereo not given)

>  <Recorded Number>
98.7

$$$$
>  <Compound>
O=NN(CC(=O)N/N=C/C=C\c1ccccc1)CC(=O)N/N=C/C=C/c1ccccc1

>  <Recorded Number>
92.5

$$$$
>  <Compound>
CC1(C)Cc2c(cn(Cc3ccccc3)c2-c2ccccc2)-c2oncc21

>  <Recorded Number>
110

$$$$
>  <Compound>
N#Cc1ncc(-c2cc(F)ccc2F)c(NC2CCCCCC2)n1

>  <Recorded Number>
64

$$$$
>  <Compound>
Clc1cc(Cl)c(Cl)c(-c2nc(-c3cccnc3)cs2)c1

>  <Recorded Number>
103

$$$$
>  <Compound>
COc1ccc(/C(=C/c2cc(OC)c(OC)cc2[N+](=O)[O-])C(=O)O)cc1

>  <Recorded Number>
106

$$$$
>  <Compound>
C#C[C@]1(O)CC[C@H]2[C@@H]3CC[C@H]4CC(F)(F)CC[C@]4(C)[C@H]3CC[C@@]21C

>  <Recorded Number>
80.3

$$$$
>  <Compound>
CN(C)c1ccc2c(c1)OC(N)=C(C#N)C2c1ccc2c(c1)CCO2 (stereo not given)

>  <Recorded Number>
31.4

$$$$
>  <Compound>
COc1cc(-c2cc(-c3ccc(C)cc3)nc3nc(N)[nH]c(=O)c23)ccc1Oc1ccnc2cc(Cl)ccc12

>  <Recorded Number>
74.3

$$$$
>  <Compound>
CC1(C)CC(=O)c2c(nc3ccc(Cl)cc3c2-c2ccccc2)C1

>  <Recorded Number>
90

$$$$
>  <Compound>
COc1ccc(C(=O)c2sc3nc(-c4cccs4)ccc3c2N)cc1OC

>  <Recorded Number>
71.7

$$$$
>  <Compound>
CCc1ccc(-c2nnc(COc3ccc(-c4nc5cc(Cl)c(Cl)cc5[nH]4)cc3OC)o2)cc1

>  <Recorded Number>
68.3

$$$$

Data credit: PubChem BioAssay (NCI)
